# Target Or Test System: acetylcholinesterase (Electrophorus electricus (Electric eel) (Gymnotus electricus), UniProt O42275)
# Sequence (O42275 whole entry, looked up): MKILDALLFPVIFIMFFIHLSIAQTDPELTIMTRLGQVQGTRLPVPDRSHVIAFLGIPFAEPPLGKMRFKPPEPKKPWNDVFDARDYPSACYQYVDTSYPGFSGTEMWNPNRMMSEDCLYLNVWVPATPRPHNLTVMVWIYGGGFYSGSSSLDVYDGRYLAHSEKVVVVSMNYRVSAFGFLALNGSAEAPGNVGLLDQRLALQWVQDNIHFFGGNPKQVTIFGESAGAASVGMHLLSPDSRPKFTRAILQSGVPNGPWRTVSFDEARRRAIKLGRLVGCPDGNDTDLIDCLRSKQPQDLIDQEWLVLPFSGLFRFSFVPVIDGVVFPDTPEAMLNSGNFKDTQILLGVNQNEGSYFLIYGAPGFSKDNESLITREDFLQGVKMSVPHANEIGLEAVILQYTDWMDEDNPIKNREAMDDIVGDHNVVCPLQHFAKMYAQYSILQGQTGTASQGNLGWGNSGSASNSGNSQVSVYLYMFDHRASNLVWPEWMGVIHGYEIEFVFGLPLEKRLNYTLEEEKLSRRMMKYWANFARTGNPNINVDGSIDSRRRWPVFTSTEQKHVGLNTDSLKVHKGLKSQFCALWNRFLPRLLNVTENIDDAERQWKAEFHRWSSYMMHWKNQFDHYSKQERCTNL
Result Type: IC50 (nM)
A number alone suffices; assume nM.

Example compounds with recorded IC50:
Compound	Observed
CCOC(=O)C1=C(C)Nc2nc3c(c(N)c2C1c1ccccc1Cl)CC(C)(C)CC3 (stereo not drawn) [Compound S1]	768
CC1=C(C(=O)OC2CCC2)C(c2ccccc2F)c2c(nc3c(c2N)CC(C)(C)CC3)N1 (stereo not drawn) [Compound S9]	919
CCOC(=O)C1=C(C)Nc2nc3c(c(N)c2C1c1cccc(C(F)(F)F)c1)CC(C)(C)CC3 (stereo not drawn) [Compound S4]	1050
CCC1=C(C(=O)OC)C(c2cccc([N+](=O)[O-])c2)c2c(nc3c(c2N)CC(C)(C)CC3)N1 (stereo not drawn) [Compound S25]	842
CC1=C(C(=O)OC(C)C)C(c2cccc(F)c2)c2c(nc3c(c2N)CC(C)(C)CC3)N1 (stereo not drawn) [Compound S3]	1130

Now for a further compound.
[ask] Consider the compound COC(=O)C1=C(C)Nc2nc3c(c(N)c2C1c1cccc([N+](=O)[O-])c1)CCCC3C (stereo not drawn) [Compound S15] and give its measured IC50.
[reply] 729
